# merged literature set: IC50 with Non-receptor tyrosine-protein kinase TYK2 (Homo sapiens, UniProt P29597)

| compound | IC50 |
| --- | --- |
| CNC(=O)c1n[nH]c2cc(-c3cc(F)c(O)cc3CC(F)(F)F)nc(NCc3nccnc3N(C)S(=O)(=O)c3ccccc3)c12 | 999 nM |
| CNC(=O)c1n[nH]c2cc(-c3cc(F)c(O)cc3CC(F)(F)F)nc(NCC(C)C)c12 | 66 nM |
| CC(C)C[C@@H](C)n1cc(-c2nc(-c3cnn(C[C@H](O)CO)c3)cn3nccc23)cn1 | 100 to 1000 nM |
| Cc1cc(Nc2ncc(C)c(N3CC(CC#N)(NC(=O)NCC(F)(F)F)C3)n2)sn1 | < 20 nM |
| Cc1cc(Nc2ncc(C)c(N3CC(CC#N)(N4CCC(CC(F)F)CC4)C3)n2)sn1 | < 10 nM |
| Cn1cc(-c2cc3ncc(Cl)n3c(-c3cnn(C4(CC#N)CN(CC(F)(F)F)C4)c3)n2)cn1 | < 10 nM |
| NC(=O)c1cnc(Nc2ccccn2)cc1Nc1ccccc1Cl | 14 nM |
| Cc1cnc(-c2cnc3[nH]ccc3c2N[C@@H]2CCCN(C(=O)CC#N)C2)o1 | ≤ 10 nM |
| Cn1cc(-c2cc3nccn3c(-c3cnn(C(C/C=C\F)C4CC4)c3)n2)cn1 (centres unmarked) | 10 to 100 nM |
| O=C(NCC1CC1)c1noc2c1CN(c1ncnc3[nH]ccc13)CC2 | > 2000 nM |
| Nc1cc2ccc1-c1ccnc(n1)Nc1cc(cc(N3CCOCC3)c1)COCCCCNC2=O | 101 to 1000 nM |
| Nc1ncnc2c1c(-c1cccc(OC[C@@H]3CCCO3)c1F)cn2C1CC2(CNC(=O)O2)C1 (some centres unmarked) | > 10000 nM |
| Cn1cc(-c2cc(-c3cn([C@]4(CC#N)C[C@H](C#N)C4)nc3N)c3ccnn3c2)cn1 | 43 nM |
| Cc1cc(Nc2ncc(C)c(N3CC(CC#N)(N(C)C4CC4)C3)n2)sn1 | < 10 nM |
| CCOC(=O)CCn1cc(Nc2ncc3ccn(Cc4ccsc4)c3n2)cn1 | < 100 nM |
| O=C1Nc2ccc(cc2)OCc2cc(ccc2Oc2cccnc2)Nc2nccc(n2)-c2ccc1cc2[N+](=O)[O-] | > 10000 nM |
| C=CC(=O)Nc1cc(Nc2ncc(C)c(O[C@@H]3CO[C@H]4[C@@H]3OC[C@H]4O)n2)ccc1N1CCC(N2CCN(C)CC2)CC1 | 313 nM |
| CCC(CC)n1cc(-c2nc(-c3cnn(C[C@@H](O)CN4CC(OC)C4)c3)cn3nccc23)cn1 | 10 to 100 nM |
| CC1(C)CCC[C@H]1n1cc(-c2nc(-c3cnn(C[C@@H](O)CO)c3)cn3nccc23)cn1 (single isomer, unassigned) | 1000 to 10000 nM |
| CC1CCNC(=O)c2ccc(c(N)c2)-c2ccnc(n2)Nc2ccc(OCC3CCCCC3)c(c2)COC1 (centres unmarked) | > 10000 nM |
| CC(C)OC(=O)Cn1cc(Nc2ncc3ccn(C[C@H]4CC[C@H](O)CC4)c3n2)cn1 | < 100 nM |
| Cn1cc(-c2cc3nccn3c(-c3cnn(C4(CCF)CCC4)c3)n2)cn1 | 10 to 100 nM |
| CCOC(=O)c1cnc(-c2cnc3[nH]ccc3c2N[C@@H]2CCCN(C(=O)CC#N)C2)s1 | ≤ 10 nM |
| NC(=O)c1cnc(Nc2ccc3c(c2)NCC(O)CO3)nc1NCc1ccncc1 (centres unmarked) | 10 to 100 nM |
| Nc1cc2ccc1-c1ccnc(n1)Nc1ccc(OCC3CCCC3)c(c1)COCCCCNC2=O | > 10000 nM |
| CCC(Cn1ccc2cnc(Nc3cnn(CC(=O)OCCC#N)c3)nc21)C(C)C (centres unmarked) | < 100 nM |
| CCOC(=O)CCn1cc(Nc2ncc3ccn(C[C@H]4CC[C@H](O)CC4)c3n2)cn1 | < 100 nM |
| CN1CCN(c2ccc3cc2COCCCCNC(=O)c2ccc(cc2)-c2ccnc(n2)N3)CC1 | 101 to 1000 nM |
| Cn1cc(-c2cc3nccn3c(-c3cnn(C(CC#N)c4cccc(Cl)c4)c3)n2)cn1 (centres unmarked) | < 10 nM |
| Cc1nnc(-c2cc3nccn3c(-c3cnn(C(CC#N)C4CC4)c3)n2)s1 (centres unmarked) | 100 to 1000 nM |
| Cn1cc(-c2cc3nccn3c(-c3cnn(C4(CC#N)CN(C(=O)CC(F)(F)F)C4)c3)n2)cn1 | 10 to 100 nM |
| CCC(CC)n1cc(-c2nc(-c3cnn(C[C@H]4COCCN4)c3)cn3nccc23)cn1 | 10 to 100 nM |
